# assay.comment: Therapeutic index
# condition.label: read-out: Therapeutic index
Output satisfied for selectivity ratio not less than 40; output not satisfied otherwise.

[[record]]
compound = "COc1ccc2sc3c(c2c1)[S+]([O-])CCNC3=O (stereo unspecified)"
discrete_label = "not satisfied"

[[record]]
compound = "C=CCN1CCNC(=O)c2sc3ccc(OC)cc3c21"
discrete_label = "satisfied"

[[record]]
compound = "COc1ccc2sc3c(c2c1)N(Cc1cccc(C)c1)CCNC3=O"
discrete_label = "satisfied"

[[record]]
compound = "COc1ccc2sc3c(c2c1)NCCNC3=O"
discrete_label = "not satisfied"

[[record]]
compound = "COc1ccc2sc3c(c2c1)NC[C@@H](CC(C)C)NC3=O"
discrete_label = "not satisfied"

[[record]]
compound = "COc1ccc2sc3c(c2c1)SCCNC3=O"
discrete_label = "satisfied"

[[record]]
compound = "COc1cccc(CN2C[C@H](Cc3ccccc3)NC(=O)c3sc4ccc(OC)cc4c32)c1"
discrete_label = "satisfied"

[[record]]
compound = "COc1ccc2sc3c(c2c1)N(Cc1ccccc1Cl)CCNC3=O"
discrete_label = "satisfied"

[[record]]
compound = "COc1ccc2sc3c(c2c1)NC[C@@H](C(C)C)NC3=O"
discrete_label = "not satisfied"

[[record]]
compound = "COc1ccc2sc3c(c2c1)N(Cc1ccccc1)CCNC3=O"
discrete_label = "satisfied"

[[record]]
compound = "COc1cccc(CN2C[C@@H](Cc3ccccc3)NC(=O)c3sc4ccc(OC)cc4c32)c1"
discrete_label = "not satisfied"

